Assign pIC50 to each entry below.
Test: Inhibition of NTPase activity of SCV NTPase/helicase after 5 mins by FRET assay
Parameters: species or system Severe acute respiratory syndrome-related coronavirus
Give bare numbers, as −log10 of the molar value.

O=c1cc(OCc2ccc(Cl)cc2)oc2ccc(OCc3cccc(Cl)c3)c(O)c12 4.55

Query block: Give the measured pIC50 of O=c1cc(OCc2cccc(I)c2)oc2ccc(OCc3cccc(Cl)c3)c(O)c12 .
Result block: 5.40

---

Experiment: Inhibition of NTPase activity of SCV NTPase/helicase after 5 mins by FRET assay
Parameters: species or system Severe acute respiratory syndrome-related coronavirus
measured-endpoint: IC50 (µM)
Answers are plain numbers, in µM.

Record excerpt, results attached:
N#Cc1cccc(COc2cc(=O)c3c(O)c(OCc4cccc(Cl)c4)ccc3o2)c1 37
O=c1cc(OCc2cccc(Cl)c2)oc2ccc(OCc3cccc(Cl)c3)c(O)c12 10

Query block: Give the measured IC50 of O=c1cc(OCc2ccc(I)cc2)oc2ccc(OCc3cccc(Cl)c3)c(O)c12 .
Result block: 23
